- tested.system: glucagon receptor (GCGR), primary cAMP assay cell line (human, UniProt P47871 26-477)
- Sequence (P47871 26-477): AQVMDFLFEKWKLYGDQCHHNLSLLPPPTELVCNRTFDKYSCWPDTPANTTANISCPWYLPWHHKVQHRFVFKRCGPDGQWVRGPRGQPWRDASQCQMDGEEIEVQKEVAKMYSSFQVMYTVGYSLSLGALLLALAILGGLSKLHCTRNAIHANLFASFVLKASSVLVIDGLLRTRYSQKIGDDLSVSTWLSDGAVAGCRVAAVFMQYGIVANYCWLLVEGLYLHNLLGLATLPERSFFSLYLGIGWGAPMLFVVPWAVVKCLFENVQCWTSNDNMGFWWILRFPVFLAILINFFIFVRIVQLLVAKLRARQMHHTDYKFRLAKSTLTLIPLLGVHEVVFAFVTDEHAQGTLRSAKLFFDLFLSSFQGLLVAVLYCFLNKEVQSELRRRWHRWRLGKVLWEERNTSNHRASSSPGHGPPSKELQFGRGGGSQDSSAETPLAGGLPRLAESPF
- assay.info: cell-based or functional assay
Starred links: 1 amine or outer side, 2 acyl side, 3 side chain; linkers in the order of their positions; H or OH if unused. Non-standard residues stand in square brackets, D forms with d. Groups on a side chain read outwards from the residue. Primed or numbered codes have the meaning given here. No end group written: not given here. *: point of attachment. γGlu = O=C(O)[C@H](CCC(=O)[*:2])N[*:1]; αMeF = C[C@](N)(Cc1ccccc1)C(=O)O; αMeK = C[C@](N)(CCCCN)C(=O)O; Lauroyl = CCCCCCCCCCCC(=O)*; αMeS = C[C@](N)(CO)C(=O)O; PEG2′ = not defined here; Aib = CC(C)(N)C(=O)O
readout.name: cAMP Primary assay EC50, n1 (nM)

H[Aib]EGS[αMeF]TSDV[αMeS]SK([PEG2′-PEG2′-γGlu-Lauroyl])LEK([PEG2′-PEG2′-γGlu-Lauroyl])EAA[αMeK]EFIAK([PEG2′-PEG2′-γGlu-Lauroyl])VVEGG-NH2 [SEQ ID NO: 463] | 20
H[Aib]EGS[αMeF]TSDVSK([PEG2′-PEG2′-γGlu-Lauroyl])YLEGEK([PEG2′-PEG2′-γGlu-Lauroyl])A[αMeK]EFIK([PEG2′-PEG2′-γGlu-Lauroyl])FVVEGG-NH2 [SEQ ID NO: 445] | 19.5
H[Aib]EGS[αMeF]TSDVSK([PEG2′-PEG2′-γGlu-Lauroyl])YLEGK([PEG2′-PEG2′-γGlu-Lauroyl])AA[αMeK]EFIAFK([PEG2′-PEG2′-γGlu-Lauroyl])VEGG-NH2 [SEQ ID NO: 476] | 19.8
H[Aib]EGS[αMeF]TSDV[αMeS]SK([PEG2′-PEG2′-γGlu-Lauroyl])LEGEAA[αMeK]K([PEG2′-PEG2′-γGlu-Lauroyl])FIAK([PEG2′-PEG2′-γGlu-Lauroyl])VVEGG-NH2 [SEQ ID NO: 466] | 20.2
H[Aib]EGS[αMeF]TSDVSK([PEG2′-PEG2′-γGlu-Lauroyl])YLEK([PEG2′-PEG2′-γGlu-Lauroyl])EAA[αMeK]EFIAK([PEG2′-PEG2′-γGlu-Lauroyl])VVEGG-NH2 [SEQ ID NO: 459] | 19.7
H[Aib]EGS[αMeF]TSDV[αMeS]SK([PEG2′-PEG2′-γGlu-Lauroyl])LEGEAA[αMeK]K([PEG2′-PEG2′-γGlu-Lauroyl])FIAFK([PEG2′-PEG2′-γGlu-Lauroyl])VEGG-NH2 [SEQ ID NO: 482] | 20
H[Aib]EGS[αMeF]TSDV[αMeS]SK([PEG2′-PEG2′-γGlu-Lauroyl])LEK([PEG2′-PEG2′-γGlu-Lauroyl])EAA[αMeK]EFIAFK([PEG2′-PEG2′-γGlu-Lauroyl])VEGG-NH2 [SEQ ID NO: 479] | 19.8
H[Aib]EGS[αMeF]TSDVSK([PEG2′-PEG2′-γGlu-Lauroyl])YLEK([PEG2′-PEG2′-γGlu-Lauroyl])EAA[αMeK]EFIAFK([PEG2′-PEG2′-γGlu-Lauroyl])VEGG-NH2 [SEQ ID NO: 475] | 19.5
H[Aib]EGS[αMeF]TSDK([PEG2′-PEG2′-γGlu-Lauroyl])SSYLEGEK([PEG2′-PEG2′-γGlu-Lauroyl])A[αMeK]EFIAFK([PEG2′-PEG2′-γGlu-Lauroyl])VEGG-NH2 [SEQ ID NO: 473] | 19.6
H[Aib]EGS[αMeF]TSDVSK([PEG2′-PEG2′-γGlu-Lauroyl])YLEGEK([PEG2′-PEG2′-γGlu-Lauroyl])A[αMeK]EFIAK([PEG2′-PEG2′-γGlu-Lauroyl])VVEGG-NH2 [SEQ ID NO: 461] | 19.8
H[Aib]EGS[αMeF]TSDV[αMeS]SYK([PEG2′-PEG2′-γGlu-Lauroyl])EGEAA[αMeK]K([PEG2′-PEG2′-γGlu-Lauroyl])FIAFK([PEG2′-PEG2′-γGlu-Lauroyl])VEGG-NH2 [SEQ ID NO: 486] | 19.9
H[Aib]EGS[αMeF]TSDV[αMeS]SYK([PEG2′-PEG2′-γGlu-Lauroyl])EGK([PEG2′-PEG2′-γGlu-Lauroyl])AA[αMeK]EFIAK([PEG2′-PEG2′-γGlu-Lauroyl])VVEGG-NH2 [SEQ ID NO: 468] | 20
H[Aib]EGS[αMeF]TSDV[αMeS]SK([PEG2′-PEG2′-γGlu-Lauroyl])LEGK([PEG2′-PEG2′-γGlu-Lauroyl])AA[αMeK]EFIAK([PEG2′-PEG2′-γGlu-Lauroyl])VVEGG-NH2 [SEQ ID NO: 464] | 20.2
H[Aib]EGS[αMeF]TSDVSK([PEG2′-PEG2′-γGlu-Lauroyl])YLEGEK([PEG2′-PEG2′-γGlu-Lauroyl])A[αMeK]EFIAFK([PEG2′-PEG2′-γGlu-Lauroyl])VEGG-NH2 [SEQ ID NO: 477] | 19.6
H[Aib]EGS[αMeF]TSDV[αMeS]SYK([PEG2′-PEG2′-γGlu-Lauroyl])EGEK([PEG2′-PEG2′-γGlu-Lauroyl])A[αMeK]EFIAFK([PEG2′-PEG2′-γGlu-Lauroyl])VEGG-NH2 [SEQ ID NO: 485] | 19.6
